# target: CK2α (Homo sapiens)
propertyLabel: pKi
The meaning of pKi here: minus log10 of the concentration in molar units.

The recorded pKi for entry Nc1ccc(C(=O)O)cc1N=Nc1ccc(C=Cc2ccc(N=Nc3cc(C(=O)O)ccc3N)cc2S(=O)(=O)O)c(S(=O)(=O)O)c1 [CCB8] equals 7.07

====

# target: CK2α (Homo sapiens, UniProt P68400)
# Sequence (P68400 whole entry): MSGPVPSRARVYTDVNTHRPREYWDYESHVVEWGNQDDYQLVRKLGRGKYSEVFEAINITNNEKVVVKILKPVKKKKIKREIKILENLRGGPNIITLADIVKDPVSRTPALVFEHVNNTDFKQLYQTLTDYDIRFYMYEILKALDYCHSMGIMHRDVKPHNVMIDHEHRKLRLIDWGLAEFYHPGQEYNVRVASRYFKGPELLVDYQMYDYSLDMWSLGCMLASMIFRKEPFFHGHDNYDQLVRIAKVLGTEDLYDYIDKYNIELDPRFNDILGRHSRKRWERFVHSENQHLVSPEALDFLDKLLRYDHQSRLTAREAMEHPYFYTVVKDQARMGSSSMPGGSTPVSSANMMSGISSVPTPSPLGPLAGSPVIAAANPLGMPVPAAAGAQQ
# assaySummary: in vitro CK2 kinase assay (inhibition of catalytic activity)
# Type: biochemical
# conditions: inhibition of the catalytic activity of recombinant CK2α
propertyLabel: IC50
Write the numeric value and follow it with the unit.

The recorded IC50 for entry Nc1ccc(C(=O)O)cc1N=Nc1ccc(C=Cc2ccc(N=Nc3cc(C(=O)O)ccc3N)cc2S(=O)(=O)O)c(S(=O)(=O)O)c1 [CCB8] equals 600 nM
